assay: Mouse microsomal metabolism assay; format: in vitro ADME; settings: liver microsomes; mouse hepatic microsomes, 37° C., phosphate buffer pH 7.4, NADPH regenerating system; read-out: Mouse t½
Readout label: half-life

O=C(Nc1ccc(F)cc1)N1CCN(C(=O)c2cccc(F)n2)CC1 [XXIII] :: > 60 min
O=C(Nc1ccc(N2CCOCC2)nc1)N1CCN(Cc2ccccc2)CC1 [XXV] :: 27.6 min
O=C(Nc1ccc(OC(F)(F)F)cc1)N1CCN(C(=O)c2cccc(F)n2)CC1 [Compound 21] :: > 60 min
CN1CCN(c2ccc(NC(=O)N3CCN(C(=O)c4cccc(F)c4)CC3)cc2F)CC1 [Compound 60] :: 58.7 min
O=C(Nc1ccc(NC(=O)N2CCN(C(=O)c3cccc(F)c3)CC2)cc1)c1ccncc1 [Compound 123] :: > 60 min

GET /value?item= O=C(Nc1cccc(NC(=O)N2CCN(C(=O)c3cccc(F)c3)CC2)c1)c1ccc[n+]([O-])c1 [Compound 109] &field=half-life returns > 60 min

Briefly, half-life measured for O=C(Nc1ccc(F)cc1)N1CCN(C(=O)c2cccc(F)c2)CC1 [Compound 155] : 59.4 min

Entry O=C(Nc1ccc(N2CCOCC2)nc1)N1CCN(C(=O)c2cccc(F)c2)CC1 [Compound 154] ; half-life = > 60 min

----------
biological target: K+ATP channel (Rattus norvegicus, UniProt Q09429); assay: KATP channel receptor binding assay ([3H]glibenclamide); conditions: Table 3; [3H]glibenclamide 0.1 nM, rat cerebral cortex
Sequence (Q09429 whole entry): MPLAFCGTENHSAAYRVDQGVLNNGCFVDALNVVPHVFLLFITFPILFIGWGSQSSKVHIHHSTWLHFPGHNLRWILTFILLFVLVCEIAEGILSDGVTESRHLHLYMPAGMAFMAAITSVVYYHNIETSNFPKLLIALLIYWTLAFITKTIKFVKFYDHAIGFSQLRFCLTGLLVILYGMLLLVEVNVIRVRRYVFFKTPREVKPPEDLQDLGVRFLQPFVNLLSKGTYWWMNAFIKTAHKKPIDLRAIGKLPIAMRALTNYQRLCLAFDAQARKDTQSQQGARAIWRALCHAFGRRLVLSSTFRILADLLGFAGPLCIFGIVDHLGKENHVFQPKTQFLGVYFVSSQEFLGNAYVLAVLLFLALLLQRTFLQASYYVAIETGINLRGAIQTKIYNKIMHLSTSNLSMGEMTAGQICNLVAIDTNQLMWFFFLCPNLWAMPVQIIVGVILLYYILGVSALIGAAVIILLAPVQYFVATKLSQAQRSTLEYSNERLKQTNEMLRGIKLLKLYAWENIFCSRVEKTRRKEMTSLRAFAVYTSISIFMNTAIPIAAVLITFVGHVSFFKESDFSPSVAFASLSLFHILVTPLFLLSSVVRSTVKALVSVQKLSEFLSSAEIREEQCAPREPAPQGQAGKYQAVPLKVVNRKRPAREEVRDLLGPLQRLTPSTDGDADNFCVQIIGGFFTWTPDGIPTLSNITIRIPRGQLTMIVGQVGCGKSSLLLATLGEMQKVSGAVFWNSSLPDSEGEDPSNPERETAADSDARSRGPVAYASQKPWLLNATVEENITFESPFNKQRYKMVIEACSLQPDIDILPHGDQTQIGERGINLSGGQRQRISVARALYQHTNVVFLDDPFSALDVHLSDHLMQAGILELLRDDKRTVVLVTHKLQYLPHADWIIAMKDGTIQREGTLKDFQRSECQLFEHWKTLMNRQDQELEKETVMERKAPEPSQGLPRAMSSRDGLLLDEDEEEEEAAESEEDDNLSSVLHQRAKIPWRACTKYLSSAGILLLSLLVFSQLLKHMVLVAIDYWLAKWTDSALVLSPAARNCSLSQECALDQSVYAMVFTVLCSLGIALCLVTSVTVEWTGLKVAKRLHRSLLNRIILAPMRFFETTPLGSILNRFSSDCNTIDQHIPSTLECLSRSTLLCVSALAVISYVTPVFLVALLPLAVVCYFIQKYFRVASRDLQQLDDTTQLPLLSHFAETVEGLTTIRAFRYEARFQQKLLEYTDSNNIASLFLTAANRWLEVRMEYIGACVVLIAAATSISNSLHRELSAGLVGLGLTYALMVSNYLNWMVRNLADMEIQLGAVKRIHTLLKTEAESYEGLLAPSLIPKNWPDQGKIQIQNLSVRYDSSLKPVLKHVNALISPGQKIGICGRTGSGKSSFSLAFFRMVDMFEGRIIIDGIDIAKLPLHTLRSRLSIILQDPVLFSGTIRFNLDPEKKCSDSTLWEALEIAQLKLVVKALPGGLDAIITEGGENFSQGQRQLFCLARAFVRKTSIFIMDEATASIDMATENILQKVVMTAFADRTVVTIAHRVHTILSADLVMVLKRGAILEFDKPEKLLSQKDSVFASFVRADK
Sequence (P70673 whole entry partner): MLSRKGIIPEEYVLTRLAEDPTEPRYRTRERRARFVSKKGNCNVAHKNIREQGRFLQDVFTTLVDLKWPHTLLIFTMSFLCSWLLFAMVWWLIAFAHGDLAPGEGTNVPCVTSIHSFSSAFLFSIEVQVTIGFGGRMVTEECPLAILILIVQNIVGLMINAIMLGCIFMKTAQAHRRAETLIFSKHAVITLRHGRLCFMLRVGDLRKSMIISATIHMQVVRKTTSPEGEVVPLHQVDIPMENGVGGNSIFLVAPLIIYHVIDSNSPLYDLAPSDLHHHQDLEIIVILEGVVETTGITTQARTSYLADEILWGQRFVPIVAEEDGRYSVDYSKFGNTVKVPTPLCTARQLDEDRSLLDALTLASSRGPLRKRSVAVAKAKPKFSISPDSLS
Property: K+ATP Channel (% Inhibition of Control Specific Binding); scope: individual compounds
Please state the figure in %; there is no need to write the unit.

A selection of reference data follows.
O=C(Nc1ccc(C(F)(F)F)cc1)N1CCN(C(=O)c2cccc(F)n2)CC1 :: 14
O=C(Nc1nc(-c2ccccc2)cs1)N1CCN(C(=O)c2cccc(F)c2)CC1 :: −13
Cn1cnnc1-c1cccc(NC(=O)N2CCN(C(=O)c3cccc(F)c3)CC2)c1 :: −2

Please fill in: K+ATP Channel (% Inhibition of Control Specific Binding) reported for `Cc1nc(-c2cccc(NC(=O)N3CCN(C(=O)c4cccc(F)c4)CC3)c2)no1` = 13

# compound O=C(Nc1ccc(N2CCN(C(=O)OC3CCOC3)CC2)c(F)c1)N1CCN(C(=O)c2cccc(F)c2)CC1 (racemic) ; its K+ATP Channel (% Inhibition of Control Specific Binding) = 12

----------
experiment: Mouse microsomal metabolism assay; assay type: in vitro ADME; details: liver microsomes; mouse hepatic microsomes, 37° C., phosphate buffer pH 7.4, NADPH regenerating system; read-out: Mouse t½
Readout label: half-life

Worked examples follow.
O=C(Nc1nc2cc(Cl)ccc2o1)N1CCN(C(=O)c2cccc(F)c2)CC1 :: > 60 min
Cc1ccccc1CN1CCN(C(=O)Nc2ccc(F)cc2)CC1 :: 4.4 min
CS(=O)(=O)Nc1ccc(NC(=O)N2CCN(C(=O)c3cccc(F)c3)CC2)cc1 :: > 60 min
O=C(Nc1ccc(C(=O)N2CCOCC2)cc1)N1CCN(C(=O)c2cccc(F)c2)CC1 :: > 60 min
O=C(Nc1ccc(C(F)(F)F)cc1)N1CCN(C(=O)c2cccc(F)n2)CC1 :: > 60 min

Consider now this further compound.
half-life reported for this compound `Cc1ccccc1C(=O)N1CCN(C(=O)Nc2ccc(F)cc2)CC1` : 31.4 min
